Listing of recorded 229E Inhibition rate by entry.
System: HCoV-229E
Design: species or system Huh-7; HTS, protection from HCoV-229E induced cell death, luminescent cell viability (CellCounting-Lite 2.0), inhibition rate
settings: 24 h, 10 µM; inhibitor
Structures can show the parent of a compound that is named as a salt.
Give just the numeric value; % need not be written.

>  <compound>
O=C1C=C2C=C[C@@H]3C[C@@]2(O1)[C@@H]1CCCCN31

>  <229E Inhibition rate (%)>
21.3

$$$$
>  <compound>
C=C(C)[C@H]1CN[C@H](C(=O)O)[C@H]1CC(=O)O

>  <229E Inhibition rate (%)>
14.3

$$$$
>  <compound>
COc1c2c3c4c(c(OC)c(=O)c5c(O)cc(OC)c(c6c(OC)cc(O)c(c1=O)c63)c54)[C@@H](C(C)=O)[C@@](C)(O)C2

>  <229E Inhibition rate (%)>
4.6

$$$$

Problem: // returns reported 229E Inhibition rate for input CC[C@H]1CN2CCc3cc(OC)c(OC)cc3[C@@H]2C[C@@H]1C[C@H]1NCCc2cc(O)c(OC)cc21 [Cephaeline (dihydrochloride)]
Result: 17.7
